Reference source for all entries: paper PMC8233901

- Test system: horse erythrocytes
- Experiment Summary: Hemolytic activity (hemoglobin release from erythrocytes)
- Format: cell-based
- Reported Conditions: D-amino acid lipopeptides, 375 µM, TRIS buffer pH 7.2, 1 h, 37 °C, relative to melittin, ± confidence interval (α = 0.05)
Where a SMILES comes first, the peptide text is derived from it. [ ]: non-standard residue; d: D form. The star is where a group is joined. Butyryl = CCCC(=O)*
Readout Kind: Hemolysis (%) 375 µM
The reply should be a number in %, with the unit left off.

Please review the following examples before continuing.
- Molecule: "CCCC(=O)NCCCC[C@H](NC(=O)[C@@H](NC(=O)[C@H](CCCCN)NC(=O)[C@H](CCCCN)NC(=O)[C@@H](Cc1ccccc1)NC(=O)[C@H](CC(C)C)NC(=O)[C@H](CCCCN)NC(=O)[C@H](CCCCN)NC(C)=O)[C@@H](C)CC)C(=O)N[C@@H](CCCCN)C(=O)N[C@@H](Cc1ccc(O)cc1)C(=O)N[C@@H](CC(C)C)C(N)=O [BP474, Ac-KKLfKKIK(COC3H7)KYL-NH2] (Ac-KKL[dF]KKIK(Butyryl)KYL-NH2)"
  System Name: "horse erythrocytes"
  Readout Kind: "Hemolysis (%) 375 µM"
  Quantitative Readout: 0
- Molecule: "CCCC(=O)NCCCC[C@H](NC(=O)[C@H](CCCCN)NC(=O)[C@H](CC(C)C)NC(=O)[C@@H](NC(=O)[C@H](CCCCN)NC(=O)[C@H](CCCCN)NC(=O)[C@@H](Cc1ccccc1)NC(=O)[C@H](CC(C)C)NC(=O)[C@H](CCCCN)NC(=O)[C@H](CCCCN)NC(C)=O)[C@@H](C)CC)C(=O)N[C@@H](CC(C)C)C(N)=O [BP475, Ac-KKLfKKILKK(COC3H7)L-NH2] (Ac-KKL[dF]KKILKK(Butyryl)L-NH2)"
  System Name: "horse erythrocytes"
  Readout Kind: "Hemolysis (%) 375 µM"
  Quantitative Readout: 0

# input for lookup
Query :: Which Hemolysis (%) 375 µM value belongs to CCCC(=O)NCCCC[C@H](NC(=O)[C@H](Cc1ccc(O)cc1)NC(=O)[C@H](CCCCN)NC(=O)[C@H](CC(C)C)NC(=O)[C@@H](NC(=O)[C@H](CCCCN)NC(=O)[C@H](CCCCN)NC(=O)[C@@H](Cc1ccccc1)NC(=O)[C@H](CC(C)C)NC(=O)[C@H](CCCCN)NC(=O)[C@H](CCCCN)NC(C)=O)[C@@H](C)CC)C(N)=O [BP496, Ac-KKLfKKILKYK(COC3H7)-NH2] (Ac-KKL[dF]KKILKYK(Butyryl)-NH2) ?
Result :: 1

###

- Tested on: tobacco leaves
- Experiment Summary: Effect of peptide infiltration on tobacco leaves (lesion size)
- Assay type: in vivo
- Reported Conditions: D-amino acid lipopeptides; 250 µM, 100 µL infiltrated into tobacco leaves, lesion diameter, 48 h, at least three leaves; ± confidence interval
Where a SMILES comes first, the peptide text is derived from it. [ ]: non-standard residue; d: D form. The star is where a group is joined. Lauroyl = CCCCCCCCCCCC(=O)*; Hexanoyl = CCCCCC(=O)*
Readout Kind: Size of the lesion (mm) 250 µM
The reply should be a number in mm, with the unit left off.

Please review the following examples before continuing.
- Molecule: "CCCCCCCCCCCC(=O)NCCCC[C@@H](NC(=O)[C@H](CC(C)C)NC(=O)[C@H](CCCCN)NC(=O)[C@H](CCCCN)NC(C)=O)C(=O)N[C@@H](CCCCN)C(=O)N[C@@H](CCCCN)C(=O)N[C@H](C(=O)N[C@@H](CC(C)C)C(=O)N[C@@H](CCCCN)C(=O)N[C@@H](Cc1ccc(O)cc1)C(=O)N[C@@H](CC(C)C)C(N)=O)[C@@H](C)CC"
  System Name: "tobacco leaves"
  Quantitative Readout: 13
- Molecule: "CCCCCCCCCCCC(=O)NCCCC[C@H](NC(=O)[C@H](CC(C)C)NC(=O)[C@@H](NC(=O)[C@H](CCCCN)NC(=O)[C@H](CCCCN)NC(=O)[C@@H](Cc1ccccc1)NC(=O)[C@H](CC(C)C)NC(=O)[C@H](CCCCN)NC(=O)[C@H](CCCCN)NC(C)=O)[C@@H](C)CC)C(=O)N[C@@H](Cc1ccc(O)cc1)C(=O)N[C@@H](CC(C)C)C(N)=O"
  System Name: "tobacco leaves"
  Quantitative Readout: 18
- Molecule: "CCCCCC(=O)NCCCC[C@H](NC(=O)[C@H](Cc1ccc(O)cc1)NC(=O)[C@H](CCCCN)NC(=O)[C@H](CC(C)C)NC(=O)[C@@H](NC(=O)[C@H](CCCCN)NC(=O)[C@H](CCCCN)NC(=O)[C@@H](Cc1ccccc1)NC(=O)[C@H](CC(C)C)NC(=O)[C@H](CCCCN)NC(=O)[C@H](CCCCN)NC(C)=O)[C@@H](C)CC)C(N)=O [BP495, Ac-KKLfKKILKYK(COC5H11)-NH2] (Ac-KKL[dF]KKILKYK(Hexanoyl)-NH2)"
  System Name: "tobacco leaves"
  Quantitative Readout: 11
- Molecule: "CCCCCCCCCCCC(=O)NCCCC[C@H](NC(=O)[C@@H](NC(=O)[C@H](CCCCN)NC(=O)[C@H](CCCCN)NC(=O)[C@@H](Cc1ccccc1)NC(=O)[C@H](CC(C)C)NC(=O)[C@H](CCCCN)NC(=O)[C@H](CCCCN)NC(C)=O)[C@@H](C)CC)C(=O)N[C@@H](CCCCN)C(=O)N[C@@H](Cc1ccc(O)cc1)C(=O)N[C@@H](CC(C)C)C(N)=O [BP490, Ac-KKLfKKIK(COC11H23)KYL-NH2] (Ac-KKL[dF]KKIK(Lauroyl)KYL-NH2)"
  System Name: "tobacco leaves"
  Quantitative Readout: 11

# input for lookup
Query :: Which Size of the lesion (mm) 250 µM value belongs to CCCCCC(=O)NCCCC[C@H](NC(=O)[C@H](CCCCN)NC(=O)[C@H](CCCCN)NC(=O)[C@@H](Cc1ccccc1)NC(=O)[C@H](CC(C)C)NC(=O)[C@H](CCCCN)NC(=O)[C@H](CCCCN)NC(C)=O)C(=O)N[C@@H](CC(C)C)C(=O)N[C@@H](CCCCN)C(=O)N[C@@H](Cc1ccc(O)cc1)C(=O)N[C@@H](CC(C)C)C(N)=O [BP494, Ac-KKLfKKK(COC5H11)LKYL-NH2] (Ac-KKL[dF]KKK(Hexanoyl)LKYL-NH2) ?
Result :: 8
